# Assayed Target: Dimeric Mouse Ang-2FD conjugated to human IgG1 (mouse (Mus musculus))
# Sequence (chain, as listed by the source limits assumed): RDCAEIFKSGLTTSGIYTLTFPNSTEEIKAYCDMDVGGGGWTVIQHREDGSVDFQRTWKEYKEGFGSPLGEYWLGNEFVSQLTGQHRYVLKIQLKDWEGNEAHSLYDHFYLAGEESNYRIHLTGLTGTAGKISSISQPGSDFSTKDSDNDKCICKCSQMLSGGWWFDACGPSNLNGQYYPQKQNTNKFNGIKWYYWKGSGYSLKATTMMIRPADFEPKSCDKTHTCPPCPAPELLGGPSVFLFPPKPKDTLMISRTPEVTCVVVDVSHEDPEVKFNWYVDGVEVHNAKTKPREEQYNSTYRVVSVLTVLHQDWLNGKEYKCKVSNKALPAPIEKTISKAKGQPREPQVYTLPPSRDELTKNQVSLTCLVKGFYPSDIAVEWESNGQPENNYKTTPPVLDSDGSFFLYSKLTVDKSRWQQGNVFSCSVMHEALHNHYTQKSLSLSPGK
# Run Description: SPR, human IgG1 antibody captured
Listed below: T1/2 values for each entry.

[
  {
    "Binder": "H1H730N (antibody, V domains shown) VH: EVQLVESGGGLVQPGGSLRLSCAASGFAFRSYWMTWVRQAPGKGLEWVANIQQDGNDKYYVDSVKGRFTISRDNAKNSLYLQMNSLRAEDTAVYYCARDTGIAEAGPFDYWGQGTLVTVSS VL: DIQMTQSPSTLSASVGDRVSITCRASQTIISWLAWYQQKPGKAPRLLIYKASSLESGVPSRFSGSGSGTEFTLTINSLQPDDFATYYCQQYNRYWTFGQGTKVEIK",
    "T1/2 [h]": 1.5
  },
  {
    "Binder": "H1H724N (antibody, V domains shown) VH: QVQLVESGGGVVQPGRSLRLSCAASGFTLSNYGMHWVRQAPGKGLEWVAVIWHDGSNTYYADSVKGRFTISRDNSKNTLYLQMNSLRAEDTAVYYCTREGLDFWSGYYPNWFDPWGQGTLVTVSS VL: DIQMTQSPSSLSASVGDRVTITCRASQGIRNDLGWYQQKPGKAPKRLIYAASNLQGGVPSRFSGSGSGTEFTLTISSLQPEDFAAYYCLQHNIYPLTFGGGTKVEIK",
    "T1/2 [h]": 1.4
  }
]

Data provenance: patent US20130129722A1
